Measured pIC50 values are reported for all entries that follow.
Biological target: EGFR A763_Y764insFHEA (Homo sapiens (Human), UniProt P00533, INS763FHEA)
Sequence (P00533 other isoform, or with tags, fused parts or gaps del 1-694/ins FHEA behind 763 limits assumed): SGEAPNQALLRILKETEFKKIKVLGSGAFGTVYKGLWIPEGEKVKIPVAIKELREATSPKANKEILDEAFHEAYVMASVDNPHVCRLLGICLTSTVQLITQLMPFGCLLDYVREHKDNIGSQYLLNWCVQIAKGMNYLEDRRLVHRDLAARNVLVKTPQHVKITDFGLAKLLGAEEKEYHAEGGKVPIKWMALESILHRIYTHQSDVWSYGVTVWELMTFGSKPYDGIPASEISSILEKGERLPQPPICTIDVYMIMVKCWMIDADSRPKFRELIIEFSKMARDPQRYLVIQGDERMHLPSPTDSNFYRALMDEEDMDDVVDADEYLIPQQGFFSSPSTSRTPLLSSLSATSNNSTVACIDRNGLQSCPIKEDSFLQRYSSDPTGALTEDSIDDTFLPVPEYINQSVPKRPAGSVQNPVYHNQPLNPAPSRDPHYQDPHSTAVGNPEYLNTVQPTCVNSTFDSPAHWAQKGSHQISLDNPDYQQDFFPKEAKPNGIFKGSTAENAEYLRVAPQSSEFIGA
Experiment: HTRF inhibitory activity against EGFR mutant enzyme (EGFR A763_Y764insFHEA)
Conditions: recombinant enzyme, 37° C. for 2 hours
pIC50 is defined as minus the log10 of a concentration measured in mol/L.

Look up pIC50 for this compound: C=CC(=O)Nc1cc(Nc2ncc(Cl)c(Nc3cccc4c3N(C(C)=O)CC4)n2)c(OC)cc1N(C)CCNC [Example 92]
9.00

# repeat for C=CC(=O)Nc1cc(Nc2ncc(Cl)c(Nc3ccccc3NS(C)(=O)=O)n2)c(OC)cc1N(C)CCN1CCCC1 [Example 21]
8.52

# repeat for C=CC(=O)Nc1cc(Nc2ncc(F)c(Nc3ccccc3NS(=O)(=O)c3ccccc3)n2)c(OC)cc1N(C)CCN(C)C [Example 14]
8.70

# repeat for C=CC(=O)Nc1cc(Nc2ncc(Cl)c(Nc3ccccc3N3CCCCS3(=O)=O)n2)c(OC)cc1N(C)CCN(C)C [Example 71]
8.30

# repeat for C=CC(=O)Nc1cc(Nc2ncc(Cl)c(Nc3ccccc3NS(=O)(=O)c3ccc(C)cc3)n2)c(OC)cc1N(C)CCN(C)C [Example 3]
8.70

# repeat for CC#CC(=O)Nc1cc(Nc2ncc(Cl)c(Nc3cccc4c3N(C(C)=O)CC4)n2)c(OC)cc1N(C)CCN(C)C [Example 97]
6.55

# repeat for C=CC(=O)Nc1cc(Nc2ncc(Cl)c(Nc3cccc4c3N(S(C)(=O)=O)CCC4)n2)c(OC)cc1N1CCC(N(C)C)CC1 [Example 49]
8.00

# repeat for C=CC(=O)Nc1cc(Nc2ncc(Cl)c(Nc3cccc4c3N(C(C)=O)CC4)n2)c(OC)cc1N(C)CCN(C)C [Example 91]
9.00

# repeat for C=CC(=O)Nc1cc(Nc2ncc(Cl)c(Nc3cccc(C(C)C)c3N(C)S(C)(=O)=O)n2)c(OC)cc1N(C)CCN(C)C [Example 37]
8.70

# repeat for C=CC(=O)Nc1cc(Nc2ncc(Cl)c(Nc3cccc(C)c3NS(C)(=O)=O)n2)c(OC)cc1N(C)CCN(C)C [Example 36]
9.00

# repeat for C=CC(=O)Nc1cc(Nc2ncc(Cl)c(Nc3ccccc3NC(C)=O)n2)c(OC)cc1N(C)CCN(C)C [Example 90]
8.15

# repeat for COc1cc(N(C)CCN(C)C)c(NC(=O)/C=C/CN(C)C)cc1Nc1ncc(Cl)c(Nc2ccccc2NS(C)(=O)=O)n1 [Example 28]
8.10

# repeat for C=CC(=O)Nc1cc(Nc2ncc(Cl)c(Nc3cccc4c3N(S(C)(=O)=O)CCC4)n2)c(OC)cc1N1CCC(N2CCN(C)CC2)CC1 [Example 50]
8.52

# repeat for C=CC(=O)Nc1cc(Nc2ncc(Cl)c(Nc3ccc(C)c(C)c3N(C)C(C)=O)n2)c(OC)cc1N(C)CCN(C)C [Example 83]
7.72

# repeat for C=CC(=O)Nc1cc(Nc2ncc(Cl)c(Nc3cccc(C)c3N(C)S(C)(=O)=O)n2)c(OC)cc1N(C)CCN(C)C [Example 38]
8.70

# repeat for C=CC(=O)Nc1cc(Nc2ncc(Cl)c(Nc3ccc(C)c(C)c3NC(C)=O)n2)c(OC)cc1N(C)CCN(C)C [Example 84]
8.52

# repeat for COc1cc(N2CCN(C)CC2)c(NC(=O)/C=C/CN(C)C)cc1Nc1ncc(Cl)c(Nc2ccccc2NS(C)(=O)=O)n1 [Example 27]
8.05
